Reported z-score is given for each of the following molecules.
assay: modulators of HCV replicon luciferase signal, primary screen, HCV replication inhibitor project, Huh7 cells, luciferase reporter (AID 1109); settings: 48 h, higher = more signal;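 also: huh7 hepatoma cells harbouring a luciferase neomycin HCV replicon reporter; luciferase luminescence as measure of HCV replicon replication; test concentration not given here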
result_type: z-score

{"columns": ["substance_smiles", "quantitative_readout"],
 "data": [
  ["CCCC[C@H]1OB(O)C[C@H]2C1=C(C)C[C@H]1C(=O)C=CC(=O)[C@H]12", -2.52],
  ["O=C1O[C@@H](c2ccccc2)[C@@H](c2ccccc2)N2[C@@H](c3ccc(OCCO)cc3)[C@]3(C(=O)Nc4ccc(C#CCCO)cc43)[C@@H](C(=O)Nc3nc4ccccc4s3)[C@H]12", -1.36],
  ["COCCOC(=O)N1C(=O)[C@@]2(c3ccccc31)[C@H](C(N)=O)[C@H]1C(=O)O[C@H](c3ccccc3)[C@H](c3ccccc3)N1[C@@H]2c1ccc(OCCO)cc1", -1.09],
  ["CC(C)C[C@@H]1NC(=O)[C@H]2C[C@@H](C(=O)NCCCCCNC(=O)CS)[C@@H](c3ccc(O)cc3)N2C1=O", -0.28],
  ["COCCOC(=O)N1C(=O)[C@@]2(c3cc(C#CC4(O)CCCCCC4)ccc31)[C@H](C(=O)N1CCc3cc(OC)c(OC)cc3C1)[C@H]1C(=O)O[C@H](c3ccccc3)[C@H](c3ccccc3)N1[C@@H]2c1ccc(O)cc1", -1.01],
  ["C=CCN1C(=O)[C@]2(O[C@H](CCn3cc([C@H](O)c4ccccc4)nn3)[C@@H]([Si](C)(C)c3ccc(OC)cc3)[C@@H]2C)c2cc(N3C(=O)c4cccc5cccc3c45)ccc21", -4.4]
]}

* * *

assay: MM1S myeloma cell viability, profiling panel, resazurin fluorescence, basal, 24 h, PK04 Diversity Set (AID 1174); details: higher = more signal, called active from +8 up or from −8 down;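 also: MM1S multiple myeloma cell line; test concentration not given here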

{"columns": ["substance_smiles", "z-score"],
 "data": [
  ["COCCOC(=O)N1C(=O)[C@@]2(c3cc(C#CC4(O)CCCCCC4)ccc31)[C@H](C(=O)N1CCc3cc(OC)c(OC)cc3C1)[C@H]1C(=O)O[C@H](c3ccccc3)[C@H](c3ccccc3)N1[C@@H]2c1ccc(O)cc1", -0.263],
  ["CN1C(=O)[C@]2(CCS(=O)(=O)c3ccccc3)N=C(c3ccc(OCCCO)cc3)O[C@@H]2c2ccccc21", -0.101],
  ["C#CCN([C@H](/C=C/C1CC1)[C@@H](O)Cc1ccccc1)[C@@H](Cc1ccccc1)C(=O)OC", 1.59],
  ["CN(C)CCCNC(=O)[C@@]1(Cc2ccccc2I)c2ccccc2C(=O)N(Cc2ccccc2)[C@H]1c1ccc(CO)cc1", -0.892]
]}

* * *

target: NADPH oxidase 2 (Homo sapiens); assay: NOX2-dependent H2O2 signal modulators, primary screen, NOX inhibitor project, cell-based, HEK293-NOX2, PMA-stimulated, Amplex Red fluorescence (AID 1159); details: 45 min, higher = more signal, called active from +8 up or from −8 down; also: test concentration not given here

{"columns": ["substance_smiles", "z-score"],
 "data": [
  ["C=C(COC)C(=O)CC[C@@H](OC(C)=O)c1ccc(OCCO)cc1", -0.352],
  ["CCCC=C(CCC)[C@@H](NC(=O)c1ccccc1)c1ccc(C(=O)OC)cc1", -3.83],
  ["C/C=C/CN(C(=O)C#Cc1ccccc1)[C@H](CO[Si](C)(C)C(C)(C)C)c1ccccc1", 0.405],
  ["CC(C)C[C@@H]1NC(=O)[C@@H]2C[C@H](C(=O)O)[C@H](c3ccc(O)cc3)N2C1=O", 0.304],
  ["[N-]=[N+]=NCc1ccccc1[C@@H]1OC(c2ccc(OCCCO)cc2)=N[C@]1(Cc1ccccc1)C(=O)NCc1ccccc1", -3.27],
  ["C=CCNC(=O)[C@@H]1[C@H]2C(=O)O[C@H](c3ccccc3)[C@H](c3ccccc3)N2[C@H](c2ccc(O)cc2)[C@@]12C(=O)Nc1ccc(C#CC3(O)CCCCCC3)cc12", 0.948],
  ["C=CCN1C(=O)[C@]2(O[C@H](CCO)[C@@H]([Si](C)(C)c3ccc(OC)cc3)[C@@H]2C)c2ccccc21", -0.536],
  ["C=C(CCCC)C(=O)CC[C@H](OC(=O)c1cccnc1)c1ccc(CO)o1", 1.25]
]}
